assay: lowers stimulated NF-kB luciferase signal in 697 cells – cell-based, luminescence, single concentration, B-cell NF-kB inhibitor project, confirmation (AID 449746); conditions: 697 B-cell NF-kB luciferase, PMA/ionomycin, 16 h; at 4 µM; hits give high values
Among all 2,000 compounds or so, about 680 (34%) were called active. These entries were drawn from the full list.
recordedMetric: inhibition (%)
One number for each entry, in %.

// worked examples, inhibition included
1) COc1cc(/C=N/NC(=O)c2ccc(N3CCCC3=O)cc2)ccc1O: -89.1
2) Cc1ccc(O)c(NC(=O)COc2cc(C)ccc2C)c1: 28.7
3) C/C=C(/C)C(=O)OC1Cc2c(ccc3ccc(=O)oc23)OC1(C)C (stereo unspecified): 50.1
4) Cc1cccc(Nc2nc(-c3ccccc3)cs2)n1: -201
5) COc1cccc(NC(=O)[C@H](Cc2c[nH]c3ccccc23)NC(=O)[C@@H]2Cc3ccccc3CN2)c1: 0.1

Please examine the following record next.
Recorded inhibition of COc1ccc2nc(SCc3ccccc3)nc(C)c2c1 , please. -295

----------
experiment: lowers stimulated NF-kB luciferase signal in 697 cells – cell-based, luminescence, single concentration, B-cell NF-kB inhibitor project, confirmation (AID 449746); settings: 697 B-cell NF-kB luciferase, PMA/ionomycin, 16 h; at 4 µM
Among all 2,000 compounds or so, about 680 (34%) were called active. No stated cut-off is given here; in the data, active means inhibition mostly above about 28% (no sharp cut-off); inactive means mostly below about 22%. These entries were drawn from the full list.
Can you answer with just one of these options? active, inactive

1) Cc1cccc(C(=O)Nc2ccc(CC(=O)O)cc2)c1: active
2) COc1ccc(CNC(=O)CNC(=O)c2sc3ccccc3c2Cl)cc1OC: inactive

We now examine a further molecule.
For C/C(=N\Nc1nc(Nc2ccccc2)nc(N2CCOCC2)n1)c1cccs1 , which call appears in the assay record? active

----------
Assign inhibition to each entry below.
assay: lowers stimulated NF-kB luciferase signal in 697 cells – cell-based, luminescence, single concentration, B-cell NF-kB inhibitor project, confirmation (AID 449746); details: 697 B-cell NF-kB luciferase, PMA/ionomycin, 16 h; at 4 µM; hits give high values
The whole screen tested about 2,000 compounds, of which about 680 (34%) were called active. The list is a sample of the results.
One number for each entry, in %.

Report inhibition for each item below.
1. Cn1c(=O)cc(SCC(=O)N2CCCC2)c2cc(Cl)ccc21
2. Clc1ccc2nc(CSc3ccccc3)cn2c1
3. COc1ccc(/C=C2\SC(=S)N(CCC(=O)Nc3ccccn3)C2=O)cc1OC
4. Cc1ccc(C(=O)C[n+]2cc(-c3ccccc3)n3c2CCCCC3)cc1

[38.2, -248, 10.2, 11.4]

Provide each entry's inhibition from the list below.
1. COc1ccc(/C=N/Nc2ccccc2C(=O)O)cc1
2. COc1ccc(C(=O)n2nc(-c3ccc(Cl)cc3)nc2N)cc1OC
3. Cn1c(-c2ccc(F)cc2)cc2onc(-c3ccccc3Cl)c2c1=O
4. COc1c(C)c2c(c(O)c1C/C=C(\C)CCC(=O)O)C(=O)OC2
5. Cc1ccc(NC(=O)c2cc([N+](=O)[O-])ccc2Cl)c(O)c1

[-12.1, 46.5, -244, -398, 11.5]

# batch size: 2; output inhibition per entry
1. Fc1ccccc1/C=N/Nc1cc(N2CCCCC2)ncn1
2. COc1cccc(-c2nc3cc(C)ccc3o2)c1

1: -264; 2: -299

----------
assay: lowers stimulated NF-kB luciferase signal in 697 cells – cell-based, luminescence, single concentration, B-cell NF-kB inhibitor project, confirmation (AID 449746); details: 697 B-cell NF-kB luciferase, PMA/ionomycin, 16 h; at 4 µM; hits give high values
Out of some 2,000 compounds screened, about 680 (34%) were called active. A selection follows.
recordedMetric: inhibition (%)
One number for each entry, in %.

Consider the reported inhibition for these compounds:
1. OCCCNc1nccc(-c2cc(Nc3cccc(Cl)c3)ncn2)n1: 85.9
2. CCN1/C(=C\c2ccc3ccccc3[n+]2CC)Sc2cc(C)ccc21: 68.5
3. O=C(/C=C/c1ccc(OCc2c(F)cccc2Cl)cc1)N1CCOCC1: -278

Give inhibition for all compounds that follow.
1. CCNC(=O)CCc1nc(-c2ccc(C(C)(C)C)cc2)no1
2. Cn1nccc1C(=O)NC1CCCc2c1cnn2-c1ccc(F)cc1F (stereo not given)
3. CCOc1cccc(/C=C/c2ccc3ccccc3n2)c1OC(C)=O
4. CC[C@]1(O)CC2CN(CCc3c([nH]c4ccccc34)[C@@](C(=O)OC)(c3cc4c(cc3OC)N(C=O)[C@H]3[C@@](O)(C(=O)OC)[C@H](OC(C)=O)[C@]5(CC)C=CCN6CC[C@]43[C@@H]65)C2)C1 (stereo not given in full)
5. Cc1cc(N)n2nc(-c3ccc(C(C)(C)C)cc3)cc2n1

[79.3, 105, -337, -337, -470]

Count: 2. Required value per item: inhibition.
1. Cn1nccc1C(=O)NC1CCCc2c1cnn2-c1ccccc1F (stereo not given)
2. Cn1c(-c2ccc(C(F)(F)F)cc2)cc2onc(-c3ccccc3)c2c1=O

97.9
-301

----------
assay: lowers stimulated NF-kB luciferase signal in 697 cells – cell-based, luminescence, single concentration, B-cell NF-kB inhibitor project, confirmation (AID 449746); settings: 697 B-cell NF-kB luciferase, PMA/ionomycin, 16 h; at 4 µM; hits give high values
Out of some 2,000 compounds screened, about 680 (34%) were called active. A selection follows.
Could you label it TRUE if measured inhibition is 10% or higher, and FALSE otherwise?

1. O=C(Nc1nc2ccccc2s1)c1ccc2c(c1)OCO2: FALSE

Here is the next item to consider.
Please indicate if the recorded inhibition for C[C@@H]1C[C@@H]2O[C@H]2/C=C\C=C\C(=O)Cc2c(Cl)c(O)cc(O)c2C(=O)O1 meets or exceeds 10%. TRUE

----------
experiment: lowers stimulated NF-kB luciferase signal in 697 cells – cell-based, luminescence, single concentration, B-cell NF-kB inhibitor project, confirmation (AID 449746); conditions: 697 B-cell NF-kB luciferase, PMA/ionomycin, 16 h; at 4 µM; hits give high values
Hit rate of the full screen: of about 2,000 compounds, about 680 (34%) were called active. A selection follows.
Would you mind labelling by inhibition? At or over -200% is Yes, under is No.

Solved cases (8 shown):
1) O=C(O)COc1ccc(-c2nccc(-c3cccs3)n2)cc1: Yes
2) NS(=O)(=O)c1ccccc1NC(=O)c1c(O)c2ccccc2[nH]c1=O: No
3) Cc1ccc2cc3cc(C(=O)N4CCCCCC4)oc3nc2c1: No
4) CC[n+]1cc(C)ccc1/C=C/c1ccc(N(C)C)cc1: Yes
5) Cc1cc(Nc2cc(N3CCN(C)CC3)nc(Sc3ccc(NC(=O)C4CC4)cc3)n2)n[nH]1: Yes
6) COc1ccc(-n2nnnc2-c2nc3ccccc3s2)cc1: No
7) OCCN1CCN(C(=S)c2ccc(-c3ccccc3)cc2)CC1: Yes
8) Cn1c(-c2ccc(C(=O)c3ccccc3)s2)nc2ccccc21: No

Has Cc1ccc(OCc2nc3ccccc3n2C)cc1 a recorded inhibition greater than or equal to -200%? No

Determine whether this compound has inhibition no lower than -200%: CCCc1nc2c(C)cc(-c3nc4ccccc4n3C)cc2n1Cc1ccc(-c2ccccc2C(=O)O)cc1 Yes

Does the reported inhibition for CCOc1ccc(C(c2c(C)[nH][nH]c2=O)c2c(C)[nH][nH]c2=O)cc1OCC fall at or above the -200% mark? Yes

----------
assay: lowers stimulated NF-kB luciferase signal in 697 cells – cell-based, luminescence, single concentration, B-cell NF-kB inhibitor project, confirmation (AID 449746); details: 697 B-cell NF-kB luciferase, PMA/ionomycin, 16 h; at 4 µM
About 680 (34%) of roughly 2,000 compounds were called active. Rule as the data show it: active = inhibition mostly above about 28% (no sharp cut-off); inactive = mostly below about 22%. A selection follows.
# valid calls are active, inactive; nothing else

Known results for compounds:
1) Cc1ccc(N/C=C/C(=O)c2ccccc2)cc1C: inactive
2) Clc1ccc(Nc2ccc3ccccc3n2)cc1: inactive
3) CC(C)C[C@@H](N)c1nnc(SCC(=O)c2ccc(Cl)cc2)o1: active
4) CCC(=O)Nc1ccc2nn(-c3ccc(F)cc3)nc2c1: inactive
5) COc1ccc(CNC(=O)[C@@H]2CC=C[C@@H]3CCN(C4CC4)C(=O)[C@@H]32)cc1: inactive

I'd appreciate the recorded outcome for Cn1c(=O)n(C)c2cc(C(=O)Nc3ccc4c(c3)OCO4)ccc21 from this test. active

----------
Can you tell me inhibition for the items I'm about to list?
assay: lowers stimulated NF-kB luciferase signal in 697 cells – cell-based, luminescence, single concentration, B-cell NF-kB inhibitor project, confirmation (AID 449746); conditions: 697 B-cell NF-kB luciferase, PMA/ionomycin, 16 h; at 4 µM; hits give high values
Among all 2,000 compounds or so, about 680 (34%) were called active. The list is a sample of the results.

Below are worked cases with known answers.
1. Cc1ccc(-n2cc3ccc([N+](=O)[O-])cc3n2)cc1: -341% (inactive)
2. CCOc1ccc(N/C=C/C(=O)c2ccccc2)cc1: -272% (inactive)

Attention now shifts to the item below.
Sample CNC(=O)c1ccc(NC(=O)c2cccc(C(F)(F)F)c2)cc1 — what was its inhibition? 12.7% (inactive)
